Every entry's value here was drawn from paper PMC6036575.

Tested on: L. plantarum DSM 13273
Procedure Summary: Well diffusion assay, spectrum of bacteriocin activity
Assay type: cell-based
Settings: 50 μl filtered supernatant of E. coli Tuner (DE3) transformants encoding the pediocin PA-1 leader, 7 mm wells, triplicate
No end group written: not given here.
Measurement Kind: radius of the zone of inhibition

Reference set (3 entries):
–KYYGNGVTCG-KHSCSVDWGKATTCIINNGAMAWATGGHQGNHKC—– (bicyclic or more) (KYYGNGVTCGKHSCSVDWGKATTCIINNGAMAWATGGHQGNHKC; not fully specified (bridges); cysteine pairing not given here; UniProt P29430 19-62, looked up) [Pediocin PA-1 (PedA), original class IIa bacteriocin of P. acidilactici LMG 2351, used as a control; heterologously expressed, reference compound] :: 0.33 ± 0.47 millimeters
SRYYGNGITCG-KHKCTVNWGQAWTCGVNRLANFGH–G————–NC— (bicyclic or more) [Agilicin (Agl), novel pediocin-like class IIa bacteriocin encoded by L. agilis DSM 20509, heterologously expressed] :: 0.33 ± 0.47 millimeters
–KYYGNGLYCG-KHSCSVDWGKATTCIINNGAMAWATGGHQGTHKC—— (bicyclic or more) [Pediocin 20336a (Ped20336), novel pediocin-like class IIa bacteriocin encoded by P. pentosaceus DSM 20336, heterologously expressed] :: 1.33 ± 0.47 millimeters

We next turn to a different substance, shown below.
So what does the record say about radius of the zone of inhibition for –KYYGNGVSCTKKHGCKVNWGQAFTCSVNRFANFGH–G————-NC— (bicyclic or more) [Hordeiocin (Hrd), novel pediocin-like class IIa bacteriocin encoded by L. hordei DSM 19519, heterologously expressed] ?
1.33 ± 0.47 millimeters

###

Test system: Li. monocytogenes DPC 6893
Procedure Summary: Well diffusion assay, spectrum of bacteriocin activity
Assay type: cell-based
Settings: 50 μl filtered supernatant of E. coli Tuner (DE3) transformants encoding the pediocin PA-1 leader, 7 mm wells, triplicate
No end group written: not given here.
Below, each entry is listed with its recorded radius of the zone of inhibition.
Please give a number only; it is taken to be in millimeters.

Reference set (2 entries):
–KYYGNGLYCG-KHSCSVDWGKATTCIINNGAMAWATGGHQGTHKC—— (bicyclic or more) [Pediocin 20336a (Ped20336), novel pediocin-like class IIa bacteriocin encoded by P. pentosaceus DSM 20336, heterologously expressed] :: 2.67
–KYYGNGVTCG-KHSCSVDWGKATTCIINNGAMAWATGGHQGNHKC—– (bicyclic or more) (KYYGNGVTCGKHSCSVDWGKATTCIINNGAMAWATGGHQGNHKC; not fully specified (bridges); cysteine pairing not given here; UniProt P29430 19-62, looked up) [Pediocin PA-1 (PedA), original class IIa bacteriocin of P. acidilactici LMG 2351, used as a control; heterologously expressed, reference compound] :: 3

So what does the record say about radius of the zone of inhibition for –KYYGNGVSCS-KHSCSVDWGKALTCTINNGAMAWTTGGHQGNHKC—- (bicyclic or more) [Rennicin A (RenA), novel pediocin-like class IIa bacteriocin encoded by L. rennini DSM 20253, heterologously expressed] ?
2
